- target.desc: FAAH (Rattus norvegicus, UniProt P97612)
- Construct: Preparation of Rat Brain Membranes Preparations (FAAH Enzyme Solution); from tissue; host or cells: rat cerebrum (brain membrane preparation)
- protocol: Determination of FAAH inhibitory activity in rat (rat brain membrane preparations, [3H]-anandamide hydrolysis)
- Type: biochemical
- condition.description: rat brain membrane preparations; 100 nM test substance; read-out: FAAH Inhibition, Inhibition Rate at 100 nM
assay.metric: inhibition at 0.1 µM (%)
Give just the number in %; leave the unit off.

COCc1ncc2c(n1)n(C)c(=O)n2C(=O)N1CC[C@H](Oc2ccc(F)cc2)C1 [Example 481]	102
CCN(C)C(=O)n1c(=O)n(C)c2nc(CC(C)(C)C)ncc21 [Example 160]	98
COc1cccc(OCc2ncc3c(n2)n(C)c(=O)n3C(=O)N2CCC2)c1 [Example 404]	96
COc1cccc(-c2ncc3c(n2)n(C(=O)N2CCCC2)c(=O)n3C)c1 [Example 230]	94
CN(C)C(=O)n1c(=O)n(C)c2cnc(COc3cccc(C(F)(F)F)c3)nc21 [Example 422]	88
CN(C)C(=O)n1c(=O)n(C)c2cnc(CCc3ccccc3C(F)F)nc21 [compound 546]	86

Which inhibition at 0.1 µM is reported for this compound? Cn1c(=O)n(C(=O)N2CCCC2)c2cnc(Cc3cccc(-c4ccccc4)c3)nc21 [compound 272]
35

Which inhibition at 0.1 µM is reported for this compound? COCCOCc1ncc2c(n1)n(C)c(=O)n2C(=O)N1CC(c2cccc(F)c2)C1 [compound 473]
113

----------
Parameter: inhibition at 0.1 µM. Scope: all listed entries.
- target.desc: FAAH (Rattus norvegicus, UniProt P97612)
- Construct: Preparation of Rat Brain Membranes Preparations (FAAH Enzyme Solution); from tissue; host or cells: rat cerebrum (brain membrane preparation)
- Sequence (P97612 1-579): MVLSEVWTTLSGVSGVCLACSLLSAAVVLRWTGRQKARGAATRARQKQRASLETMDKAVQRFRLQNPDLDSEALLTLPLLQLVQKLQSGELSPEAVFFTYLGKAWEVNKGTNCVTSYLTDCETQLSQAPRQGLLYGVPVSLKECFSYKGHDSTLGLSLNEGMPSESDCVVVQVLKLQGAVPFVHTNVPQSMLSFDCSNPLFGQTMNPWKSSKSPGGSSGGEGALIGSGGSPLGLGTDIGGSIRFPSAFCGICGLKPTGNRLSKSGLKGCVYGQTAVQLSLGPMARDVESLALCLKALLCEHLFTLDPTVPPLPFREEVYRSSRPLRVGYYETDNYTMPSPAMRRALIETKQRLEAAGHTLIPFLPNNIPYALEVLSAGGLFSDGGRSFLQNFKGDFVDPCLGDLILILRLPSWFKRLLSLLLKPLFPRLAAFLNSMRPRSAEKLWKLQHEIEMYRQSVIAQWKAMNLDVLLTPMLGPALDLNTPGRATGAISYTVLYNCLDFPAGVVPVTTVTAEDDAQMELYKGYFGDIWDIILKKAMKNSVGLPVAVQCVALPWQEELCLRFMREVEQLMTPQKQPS
- protocol: Determination of FAAH inhibitory activity in rat (rat brain membrane preparations, [3H]-anandamide hydrolysis)
- Type: biochemical
- condition.description: rat brain membrane preparations; 100 nM test substance; read-out: FAAH Inhibition, Inhibition Rate at 100 nM
Number plus unit, in that order.

COc1cccc(-c2ncc3c(n2)n(C)c(=O)n3C(=O)N2CCC(CCc3ccc(F)cc3)CC2)c1	100%

Which inhibition at 0.1 µM is reported for this compound? Cc1ccc(CCc2ncc3c(n2)n(C(=O)N2CCC2)c(=O)n3C)cc1
97%

Which inhibition at 0.1 µM is reported for this compound? CN(C)C(=O)n1c(=O)n(C)c2cnc(CCCOc3ccc(C(F)(F)F)cc3)nc21
94%

Which inhibition at 0.1 µM is reported for this compound? COCc1ncc2c(n1)n(C)c(=O)n2C(=O)N1CC[C@H](Oc2cccc(Cl)c2)C1
97%

Which inhibition at 0.1 µM is reported for this compound? Cn1c(=O)n(C(=O)N2CCCC2)c2cnc(-c3ccc(OC(F)(F)F)c(F)c3)nc21
92%

Which inhibition at 0.1 µM is reported for this compound? Cc1ccc(N2CCN(C(=O)n3c(=O)n(C)c4nc(-c5ccccc5)ncc43)CC2)nc1
100%

Which inhibition at 0.1 µM is reported for this compound? CN(C)C(=O)n1c(=O)n(C)c2cnc(CCc3ccc(OCC(F)(F)F)cc3)nc21
97%

Which inhibition at 0.1 µM is reported for this compound? CN(C)C(=O)n1c(=O)n(C)c2cnc(CCCOc3cccc(C(F)(F)F)c3)nc21
95%

----------
- target.desc: FAAH (Rattus norvegicus)
- Construct: Preparation of Rat Brain Membranes Preparations (FAAH Enzyme Solution); from tissue; host or cells: rat cerebrum (brain membrane preparation)
- Sequence (P97612 1-579): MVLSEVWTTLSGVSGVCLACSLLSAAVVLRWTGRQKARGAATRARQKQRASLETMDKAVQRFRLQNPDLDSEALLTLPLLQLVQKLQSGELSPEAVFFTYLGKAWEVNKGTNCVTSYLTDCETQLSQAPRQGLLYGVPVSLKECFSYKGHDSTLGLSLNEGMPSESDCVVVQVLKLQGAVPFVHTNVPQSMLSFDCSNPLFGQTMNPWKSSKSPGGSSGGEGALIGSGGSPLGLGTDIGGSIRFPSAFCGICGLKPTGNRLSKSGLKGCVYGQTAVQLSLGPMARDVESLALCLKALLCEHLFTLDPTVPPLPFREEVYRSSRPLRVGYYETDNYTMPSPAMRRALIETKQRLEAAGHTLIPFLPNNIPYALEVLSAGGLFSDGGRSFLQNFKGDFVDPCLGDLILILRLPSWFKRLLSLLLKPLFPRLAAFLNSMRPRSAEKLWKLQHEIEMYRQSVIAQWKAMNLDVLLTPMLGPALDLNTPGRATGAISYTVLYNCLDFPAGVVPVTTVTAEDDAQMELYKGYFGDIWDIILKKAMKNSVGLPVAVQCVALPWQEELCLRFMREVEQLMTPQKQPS
- protocol: Determination of FAAH inhibitory activity in rat (rat brain membrane preparations, [3H]-anandamide hydrolysis)
- Assay type: biochemical
- condition.description: rat brain membrane preparations; 100 nM test substance; read-out: FAAH Inhibition, Inhibition Rate at 100 nM
Parameter: inhibition at 0.1 µM. Scope: all listed entries.
Number plus unit, in that order.

CN(C)C(=O)n1c(=O)n(C)c2cnc(-c3ccc(C(F)(F)F)cc3F)nc21 [Example 338]	83%
Cc1ccc(N2CCN(C(=O)n3c(=O)n(C)c4nc(-c5ccccc5)ncc43)CC2)cc1 [Example 128]	99%

Which inhibition at 0.1 µM is reported for this molecule? Cn1c(=O)n(C(=O)N2CCCC2)c2nc(-c3cccc(OC(F)(F)F)c3)ncc21 [Example 236]
100%

Which inhibition at 0.1 µM is reported for this molecule? COc1ccc(-c2ncc3c(n2)n(C(=O)N2CCCC2)c(=O)n3C)cn1 [Example 250]
78%

Which inhibition at 0.1 µM is reported for this molecule? CCN(C)C(=O)n1c(=O)n(C)c2nc(Cc3ccc(OC)cc3)ncc21 [Example 280]
105%

Which inhibition at 0.1 µM is reported for this molecule? Cn1c(=O)n(C(=O)N2CCN(c3ncccn3)CC2)c2cnc(-c3ccccc3)nc21 [Example 51]
97%

Which inhibition at 0.1 µM is reported for this molecule? COc1cccc(-c2ncc3c(n2)n(C)c(=O)n3C(=O)N2CCCC2)c1 [Example 173]
101%

Which inhibition at 0.1 µM is reported for this molecule? CCOc1ccc(N2CCN(C(=O)n3c(=O)n(C)c4nc(-c5cccnc5)ncc43)CC2)cc1 [Example 144]
100%

Which inhibition at 0.1 µM is reported for this molecule? Cc1cccc(Cc2ncc3c(n2)n(C)c(=O)n3C(=O)N2CCC2)c1 [compound 371]
43%

Which inhibition at 0.1 µM is reported for this molecule? CCN(CC)C(=O)n1c(=O)n(C)c2nc(-c3ccccc3)ncc21 [Example 40]
20%

Which inhibition at 0.1 µM is reported for this molecule? COc1cccc(-c2ncc3c(n2)n(C)c(=O)n3C(=O)N2CCN(c3ccc(C)cc3)CC2)c1 [Example 138]
99%

Which inhibition at 0.1 µM is reported for this molecule? COc1ccc(-c2ncc3c(n2)n(C)c(=O)n3C(=O)N2CCCC2)cn1 [Example 206]
98%

----------
- target.desc: FAAH (Rattus norvegicus)
- Construct: Preparation of Rat Brain Membranes Preparations (FAAH Enzyme Solution); from tissue; host or cells: rat cerebrum (brain membrane preparation)
- protocol: Determination of FAAH inhibitory activity in rat (rat brain membrane preparations, [3H]-anandamide hydrolysis)
- Format: biochemical
- condition.description: rat brain membrane preparations; test substance 0.1 nM to 1 μM; read-out: FAAH Inhibition IC50
assay.metric: pIC50
Just the number, please; pIC50 means minus log10 of the concentration in mol/L.

As a guide, the following entries are already answered.
COc1cccc(-c2ncc3c(n2)n(C)c(=O)n3C(=O)N2CCCC2)c1F [Example 196]	7.64
COCc1ncc2c(n1)n(C)c(=O)n2C(=O)N1CC[C@H](Oc2ccc(Cl)cc2)C1 [Example 489]	9.00
COc1ccc(CCN(C)C(=O)n2c(=O)n(C)c3nc(-c4cccc(OC)c4)ncc32)cc1 [Example 93]	8.30
Cc1ccccc1-c1ncc2c(n1)n(C)c(=O)n2C(=O)N1CCCC1 [compound 169]	7.39
Cn1c(=O)n(C(=O)N2CCC2)c2nc(CCc3cccc(C4CC4)c3)ncc21 [compound 572]	7.00

Which pIC50 is reported for this molecule? Cn1c(=O)n(C(=O)N2CCCC2)c2cnc(-c3cc4ccccc4o3)nc21 [Example 216]
8.15

Which pIC50 is reported for this molecule? Cn1c(=O)n(C(=O)N2CCCC2)c2cnc(CCCc3ccccc3)nc21 [Example 21]
7.08

Which pIC50 is reported for this molecule? COc1cccc(-c2ncc3c(n2)n(C(=O)N2CCC2)c(=O)n3C)c1 [compound 355]
7.07

Which pIC50 is reported for this molecule? Cn1c(=O)n(C(=O)N2CCCC2)c2cnc(-c3cccc(F)c3)nc21 [Example 167]
8.22

Which pIC50 is reported for this molecule? CCOc1cccc(-c2ncc3c(n2)n(C(=O)N2CCC2)c(=O)n3C)c1 [compound 346]
7.68

Which pIC50 is reported for this molecule? Cn1c(=O)n(C(=O)N2CCCC2)c2cnc(-c3ccc(Cl)cc3)nc21 [Example 18]
8.15

Which pIC50 is reported for this molecule? CCCCOc1cccc(-c2ncc3c(n2)n(C(=O)N2CCC2)c(=O)n3C)c1 [compound 348]
7.55

Which pIC50 is reported for this molecule? Cc1cccc(CCc2ncc3c(n2)n(C(=O)N2CCC2)c(=O)n3C)c1 [compound 560]
7.85

Which pIC50 is reported for this molecule? Cn1c(=O)n(C(=O)N2CCC2)c2cnc(COc3ccc(Cl)cc3)nc21 [compound 406]
7.00

Which pIC50 is reported for this molecule? Cn1c(=O)n(C(=O)N2CCCC2)c2cnc(-c3ccc(C#N)cc3)nc21 [compound 181]
8.40

Which pIC50 is reported for this molecule? CCc1cccc(OCc2ncc3c(n2)n(C(=O)N(C)C)c(=O)n3C)c1 [Example 413]
8.52
